Values from PubChem BioAssay (NCI)

# Test system: SK-MEL-5 melanoma
# protocol.notes: NCI tumour cell line growth inhibition, 48 h
test.readout: TGI

Example results:
compound | reported.result
CCC(=O)N1C(=O)OCC1C(C)C (configuration not stated) | > 100 µM
COC(=O)c1ccccc1N(C(=O)c1ccccc1)c1ccccc1C | > 100 µM
CCOC(=O)/C=C(\C(=O)OCC)n1ccc(=O)n(Cc2cnnn2CCCCOC(C)=O)c1=O | 30.2 µM
COc1ccc(C#Cc2ccc(=O)oc2-c2cc(OC)c(OC)c(OC)c2)cc1O | > 46.1 µM
O=C1CSC(=S)N1c1ccco1 | > 100 µM

## Task Entry `O=C(O)[C@H](Cc1c[nH]c2ccccc12)N1C(=O)c2ccccc2C1=O` has what TGI?
## Result > 100 µM

## Task Entry `CC(=O)Nc1cc2cc(N)ccc2oc1=O` has what TGI?
## Result > 100 µM
